Tested on: DU-145 prostate
Test: NCI tumour cell line growth inhibition, 48 h
Catalogue of GI50 values

structure-string: CC#CC(=O)N1CC[C@@H](n2c(=O)n(-c3ccc(Oc4ccccc4)cc3)c3c(N)ncnc32)C1
GI50: 33.5 µM
//
structure-string: COc1ccc2nc3ccccc3c(NCc3ccc(C)cc3)c2c1
GI50: 2.64 µM
//
structure-string: Nc1nc(-c2ccccc2)cc(-c2ccc(Cl)cc2)c1-c1nc2ccccc2o1
GI50: 12.8 µM
//
structure-string: Cc1c(-c2nnc(-c3cc(Cl)c(Cl)cc3Cl)o2)nnn1-c1ccnc2c(C(F)(F)F)cccc12
GI50: 19.5 µM

Task item: Assign GI50 to the following record: Oc1c(CN2CCN(c3ccccc3F)CC2)cc(Br)c2cccnc12
Reply: 1.71 µM

Task item: Using the record for c1ccc2c3c(ccc2c1)-c1c(ccc2c(NCCCCN4CCCCC4)cccc12)C3 , state its measured GI50.
Reply: 1.77 µM

Task item: Quickly give me recorded GI50 for CC(C)(C)c1cc(-c2nc3c(F)c(F)c(F)c(F)c3[nH]2)cc(C(C)(C)C)c1O
Reply: > 100 µM

Task item: Return GI50 for the following compound: O=C(NCCCCCCNC(=O)OCc1ccc2c(Cl)cc(Cl)c(O)c2n1)OCc1ccc2c(Cl)cc(Cl)c(O)c2n1
Reply: 1.03 µM

Task item: Read the entry Cc1cc2nc(C(Cl)Cl)nc(-c3ccccc3)n2n1 and write its reported GI50.
Reply: 1.95 µM

Task item: Recall and state the measured GI50 for Nc1ccc(-c2ccc(-c3nc4cc(Cl)c(Cl)cc4[nH]3)cc2)cc1 .
Reply: 2.36 µM

Task item: Report GI50, nothing else, for this compound: Fc1cccc(-c2[nH]nc3nc(Nc4cccnc4)sc23)c1
Reply: 4.71 µM

Task item: Let me know recorded GI50 for C=C1C(=O)O[C@H]2[C@H]1CC/C(COC(=O)NCc1cc(OC)cc(OC)c1)=C\CC[C@@]1(C)O[C@@H]21 , thanks.
Reply: 0.724 µM
